Target: human PI3K(p110α/p85α) (Homo sapiens, UniProt P42336)
Sequence (P42336 whole entry): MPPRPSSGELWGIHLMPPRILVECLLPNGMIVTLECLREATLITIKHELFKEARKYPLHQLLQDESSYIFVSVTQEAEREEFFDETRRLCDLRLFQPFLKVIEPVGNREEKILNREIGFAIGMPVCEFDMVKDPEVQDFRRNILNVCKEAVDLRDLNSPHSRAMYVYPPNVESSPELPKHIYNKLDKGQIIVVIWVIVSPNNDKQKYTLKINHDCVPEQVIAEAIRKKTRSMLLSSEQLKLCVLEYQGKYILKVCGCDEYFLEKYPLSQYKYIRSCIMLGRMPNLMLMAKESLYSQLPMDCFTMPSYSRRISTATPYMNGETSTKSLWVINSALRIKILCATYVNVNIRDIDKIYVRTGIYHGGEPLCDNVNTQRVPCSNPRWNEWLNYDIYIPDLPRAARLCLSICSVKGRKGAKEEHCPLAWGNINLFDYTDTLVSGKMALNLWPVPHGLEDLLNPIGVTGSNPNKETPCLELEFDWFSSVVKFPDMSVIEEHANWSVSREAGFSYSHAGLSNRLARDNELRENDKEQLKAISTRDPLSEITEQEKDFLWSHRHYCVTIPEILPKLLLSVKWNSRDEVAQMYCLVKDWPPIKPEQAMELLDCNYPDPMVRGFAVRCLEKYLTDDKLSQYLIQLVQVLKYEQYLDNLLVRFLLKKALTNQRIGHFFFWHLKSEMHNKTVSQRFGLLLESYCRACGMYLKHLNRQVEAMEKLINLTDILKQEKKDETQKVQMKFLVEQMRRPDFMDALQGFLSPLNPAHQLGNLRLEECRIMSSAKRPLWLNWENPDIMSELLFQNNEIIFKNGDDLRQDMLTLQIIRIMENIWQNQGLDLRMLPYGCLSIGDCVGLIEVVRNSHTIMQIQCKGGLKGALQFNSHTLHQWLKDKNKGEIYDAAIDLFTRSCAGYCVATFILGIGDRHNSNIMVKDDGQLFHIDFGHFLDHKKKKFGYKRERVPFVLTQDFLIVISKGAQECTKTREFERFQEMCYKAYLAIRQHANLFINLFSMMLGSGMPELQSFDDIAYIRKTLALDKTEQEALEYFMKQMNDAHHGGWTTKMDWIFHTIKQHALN
Sequence (P27986 whole entry partner): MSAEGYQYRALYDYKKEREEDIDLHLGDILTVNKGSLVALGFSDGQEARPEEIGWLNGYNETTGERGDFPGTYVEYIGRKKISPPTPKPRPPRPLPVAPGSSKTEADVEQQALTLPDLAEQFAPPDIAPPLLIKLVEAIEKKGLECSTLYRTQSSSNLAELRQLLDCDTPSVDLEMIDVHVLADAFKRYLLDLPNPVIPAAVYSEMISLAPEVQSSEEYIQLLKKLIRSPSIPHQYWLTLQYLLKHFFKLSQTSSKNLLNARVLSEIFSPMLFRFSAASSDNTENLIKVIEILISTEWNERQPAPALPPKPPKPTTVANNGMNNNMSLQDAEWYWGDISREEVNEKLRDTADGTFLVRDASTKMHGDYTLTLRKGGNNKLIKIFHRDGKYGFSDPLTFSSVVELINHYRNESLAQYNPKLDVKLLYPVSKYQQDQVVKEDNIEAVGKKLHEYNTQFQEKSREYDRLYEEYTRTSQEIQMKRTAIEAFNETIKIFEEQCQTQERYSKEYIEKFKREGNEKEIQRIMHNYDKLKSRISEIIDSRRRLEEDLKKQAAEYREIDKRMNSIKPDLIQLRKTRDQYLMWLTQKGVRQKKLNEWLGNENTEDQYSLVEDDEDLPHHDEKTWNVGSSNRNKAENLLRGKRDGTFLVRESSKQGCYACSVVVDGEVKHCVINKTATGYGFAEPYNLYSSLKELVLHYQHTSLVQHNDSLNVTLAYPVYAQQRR
Assay: Measurement of PI3K inhibitory activity (AlphaScreen GST Detection Kit)
Format: biochemical
Conditions: 10 μM ATP, 4 μM PI(4,5)P2, read-out: Enzyme inhibitory activity (IC50, μM) PI3K α
quantity kind: IC50 (µM)
Reply numerically in µM, unit not repeated.

Example cases with answers are listed next.
> print(dat)
                                   compound  test.value
1  OCc1cc(-c2nc(N3CCOCC3)nc3c2CCN3c2ccncc2)ccc1F        0.87
2  CN(C)CCNC(=O)c1cccc(-c2nc(N3CCOCC3)nc3c2CCN3c2cccnc2)c1        0.36
3  CN(C)CCOc1cc(N2CCc3c(-c4cnc(N)nc4)nc(N4CCOCC4)nc32)ccn1       0.018

Reported IC50 for Nc1ncc(-c2nc(N3CCOCC3)nc3c2CCN3c2cc(C(=O)N3CCOCC3)ccc2F)cn1 was 0.23

Data point: Nc1ncc(-c2nc(N3CCOCC3)nc3c2CCN3C(=O)Nc2c(F)cc(N3CCOCC3)cc2F)cn1 ; IC50 = 0.01

###

System: human prostate cancer cell line PC3
Experiment: Cell proliferation inhibitory activity (Cell Counting Kit-8), prostate cancer PC3
Assay type: cell-based
Details: 96 h, PC3, 4 days
Counter-ions that a name gives are not always drawn.
Consider the following molecules and their measured inhibition at 2.5 µM readings.
Use % as the unit, but write only the number.

Below, each entry is followed by its recorded inhibition at 2.5 µM result.
> print(dat)
                                   molecule                          system.name         quantity.kind  test.value
1  Nc1ncc(-c2nc(N3CCOCC3)nc3c2CCN3c2cccnc2)cn1  human prostate cancer cell line PC3  inhibition at 2.5 µM          96
2  Oc1cc(-c2nc(N3CCOCC3)nc3c2CCN3c2ccncc2)ccc1F [Example A-32, trifluoroacetic acid salt]  human prostate cancer cell line PC3  inhibition at 2.5 µM          81
3  Nc1ncc(-c2nc(N3CCOCC3)nc3c2CCN3c2ccc(CNCc3cccnc3)cc2)cn1  human prostate cancer cell line PC3  inhibition at 2.5 µM          90
4  Cc1ccc(N2CCOCC2)cc1NC(=O)N1CCc2c(-c3cnc(N)nc3)nc(N3CCOCC3)nc21  human prostate cancer cell line PC3  inhibition at 2.5 µM          97
5  CCN1CCN(c2ccc(NC(=O)N3CCc4c(-c5cnc(N)nc5)nc(N5CCOCC5)nc43)c(C)c2)CC1  human prostate cancer cell line PC3  inhibition at 2.5 µM         100
6  CN1CCN(Cc2ccc(N3CCc4c(-c5cnc(N)nc5)nc(N5CCOCC5)nc43)cc2)CC1  human prostate cancer cell line PC3  inhibition at 2.5 µM          82

Entry Cc1ccc(C(=O)N2CCOCC2)cc1N1CCc2c(-c3cnc(N)nc3)nc(N3CCOCC3)nc21 — recorded inhibition at 2.5 µM = 55

Form: molecule = CC(=O)N1CCc2c(-c3cnc(N)nc3)nc(N3CCOCC3)nc21 ; inhibition at 2.5 µM = 89

Entry under test: CS(=O)(=O)N1CCc2c(-c3cnc(N)nc3)nc(N3CCOCC3)nc21 . Its inhibition at 2.5 µM was 87

Record Oc1cccc(-c2nc(N3CCOCC3)nc3c2CCN3c2ccncc2)c1 , field inhibition at 2.5 µM: 96

inhibition at 2.5 µM in this record for Nc1ncc(-c2nc(N3CCOCC3)nc3c2CCN3c2ccc(C(=O)N3CCN(c4ccncc4)CC3)cc2F)cn1 : 89

Consider Oc1cccc(-c2nc(N3CCOCC3)nc3c2CCN3c2ccnc(N3CCOCC3)c2)c1 . Its measured inhibition at 2.5 µM is 79

The molecule identified as CN1CCN(C(=O)c2ccc(N3CCc4c(-c5cnc(N)nc5)nc(N5CCOCC5)nc43)cc2)CC1 registered its inhibition at 2.5 µM at 88

Lookup result for CCN1CCN(C(=O)c2ccc(NC(=O)N3CCc4c(-c5cnc(N)nc5)nc(N5CCOCC5)nc43)cc2)CC1 ; measured inhibition at 2.5 µM: 80

Noted for CN(C)CCCNc1cc(N2CCc3c(-c4cccc(O)c4)nc(N4CCOCC4)nc32)ccn1 : its inhibition at 2.5 µM reads 76

Quick note, inhibition at 2.5 µM for Nc1ncc(-c2nc(N3CCOCC3)nc3c2CCN3C(=O)Nc2ccc(NCCN3CCOCC3)cc2)cn1 landed at 90

Form: molecule = Nc1ccc(-c2nc(N3CCOCC3)nc3c2CCN3c2ccncc2)cn1 ; inhibition at 2.5 µM = 95

Record Nc1ncc(-c2nc(N3CCOCC3)nc3c2CCN3C(=O)Nc2cccc(C(=O)N3CCOCC3)c2)cn1 . Reported inhibition at 2.5 µM: 70

Lab note: CCN1CCN(c2ccc(C)c(NC(=S)N3CCc4c(-c5cnc(N)nc5)nc(N5CCOCC5)nc43)c2)CC1 gave inhibition at 2.5 µM of 99

Lab note: measured inhibition at 2.5 µM of CCN1CCN(C(=O)c2cccc(NC(=O)N3CCc4c(-c5cnc(N)nc5)nc(N5CCOCC5)nc43)c2)CC1 was 89

inhibition at 2.5 µM reading for CN(Cc1cccnc1)C(=O)c1ccc(N2CCc3c(-c4cnc(N)nc4)nc(N4CCOCC4)nc32)c(F)c1 : 94

// inhibition at 2.5 µM value for Nc1ncc(-c2nc(N3CCOCC3)nc3c2CCN3C(=O)Nc2c(F)cc(N3CCOCC3)cc2F)cn1 : 79

// inhibition at 2.5 µM lookup, molecule = CN1CCN(Cc2ccc(N3CCc4c(-c5cnc(N)nc5)nc(N5CCOCC5)nc43)c(F)c2)CC1 , result: 81

Entry CN(CCN1CCOCC1)C(=O)c1ccc(N2CCc3c(-c4cnc(N)nc4)nc(N4CCOCC4)nc32)cc1 — recorded inhibition at 2.5 µM = 89

GET /value?item= CCN1CCN(C(=O)c2ccc(N3CCc4c(-c5cnc(N)nc5)nc(N5CCOCC5)nc43)c(F)c2)CC1 &field=inhibition at 2.5 µM returns 85

inhibition at 2.5 µM reported for this molecule CN1CCN(c2cc(F)c(NC(=O)N3CCc4c(-c5cnc(N)nc5)nc(N5CCOCC5)nc43)c(F)c2)CC1 : 89

Item: COc1ncc(-c2nc(N3CCOCC3)nc3c2CCN3c2cccnc2)c(OC)n1 | inhibition at 2.5 µM: 56

The molecule listed as CN1CCN(Cc2ccc(N3CCc4c(-c5cnc(N)nc5)nc(N5CCOCC5)nc43)cc2F)CC1 shows inhibition at 2.5 µM equal to 73

Record summary for Nc1ncc(-c2nc(N3CCOCC3)nc3c2CCN3c2ccc(C(=O)NCc3cccnc3)cc2)cn1 : reported inhibition at 2.5 µM = 102

For reference, reported inhibition at 2.5 µM for CC(C)N1CCN(Cc2ccc(N3CCc4c(-c5cnc(N)nc5)nc(N5CCOCC5)nc43)cc2)CC1 stands at 84

Lab note: measured inhibition at 2.5 µM of Oc1cccc(-c2nc(N3CCOCC3)nc3c2CCN3c2ccc3[nH]cnc3c2)c1 was 98

###

Target: human PI3K(p110α/p85α) (Homo sapiens)
Experiment: Measurement of PI3K inhibitory activity (AlphaScreen GST Detection Kit)
Format: biochemical
Details: 10 μM ATP, 4 μM PI(4,5)P2, read-out: Enzyme inhibitory activity (IC50, μM) PI3K α
quantity kind: IC50 (µM)
Your answer is read as µM, so omit the unit and give the number.

These recorded examples may help you get a feel for the data.
> print(dat)
                        structure.as.smiles  test.value
1  Oc1cccc(-c2nc(N3CCOCC3)nc3c2CCN3c2ccc3[nH]cnc3c2)c1        0.08
2  Oc1cccc(-c2nc(N3CCOCC3)nc3c2CCN3c2ccncc2)c1       0.009
3  Nc1ncc(-c2nc(N3CCOCC3)nc3c2CCN3C(=O)Nc2cccc(C(=O)N3CCOCC3)c2)cn1       0.007
4  CCCN1CCN(Cc2ccc(N3CCc4c(-c5cnc(N)nc5)nc(N5CCOCC5)nc43)cc2)CC1        0.07
5  CN1CCN(Cc2ccc(N3CCc4c(-c5cnc(N)nc5)nc(N5CCOCC5)nc43)cc2)CC1       0.048

IC50 for Nc1ncc(-c2nc(N3CCOCC3)nc3c2CCN3c2ccc(CNCc3cccnc3)cc2)cn1 is 0.2

The recorded IC50 for entry CCN1CCN(C(=O)c2ccc(NC(=O)N3CCc4c(-c5cnc(N)nc5)nc(N5CCOCC5)nc43)cc2)CC1 equals 0.006

The molecule identified as Nc1ncc(-c2nc(N3CCOCC3)nc3c2CCN3c2ccc(C(=O)NCc3ccncc3)cc2)cn1 registered its IC50 at 0.007
